# ASSAY TARGET: DLK (Homo sapiens, UniProt Q12852)
# Construct: 10 nM DLK, catalytic domain, Carna Biosiences; purchased Carna Biosciences ('Carna Biosiences' [sic])
# Sequence (Q12852 125-366 limits assumed): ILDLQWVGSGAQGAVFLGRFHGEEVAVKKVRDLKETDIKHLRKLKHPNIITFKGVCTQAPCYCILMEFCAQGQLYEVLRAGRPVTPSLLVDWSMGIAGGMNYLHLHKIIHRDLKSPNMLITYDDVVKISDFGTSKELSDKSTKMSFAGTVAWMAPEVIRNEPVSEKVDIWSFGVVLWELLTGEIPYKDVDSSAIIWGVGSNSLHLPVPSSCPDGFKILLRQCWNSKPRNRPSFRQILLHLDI
# ASSAY PROTOCOL: DLK biochemical assay (TR-FRET, MKK7 phosphorylation)
# CONDITION NOTES: DLK catalytic domain, MKK7 substrate, 60 μM ATP
Parameter IC50: see the listing below.
Write the answer as a number in nM, unit excluded.

- COMPOUND: "CC(CF)NC(=O)c1cc(-c2cnn(C3CCOc4ccccc43)c2)cn2nc(N)nc12 (single isomer, unassigned) [Example I-146]"
  IC50 / nM: 130
- COMPOUND: "CC[C@H](C)NC(=O)c1cc(-c2cnn(C3CCc4ccccc43)c2)cn2nc(N)nc12 (single isomer, unassigned) [Example I-15]"
  IC50 / nM: 31
- COMPOUND: "CCC(c1ccc(C(F)F)nc1)n1cc(-c2cc(C(=O)N[C@@H](C)CC)c3nc(N)nn3c2)cn1 (single isomer, unassigned) [Example I-65]"
  IC50 / nM: 25
- COMPOUND: "CC[C@H](C)NC(=O)c1cc(-c2cnn(C3CCN(CC4COC4)CC3)c2)cn2nc(N)nc12 (single isomer, unassigned) [Example I-9]"
  IC50 / nM: 80
- COMPOUND: "CC[C@H](C)NC(=O)c1cc(-c2cnn(Cc3ccc(C(F)(F)F)cc3)c2)cn2nc(N)nc12 (single isomer, unassigned) [Example I-46]"
  IC50 / nM: 25

Okay, next one:
Look up IC50: CC[C@H](C)NC(=O)c1cc(-c2cnn(C(CC(F)(F)F)c3ccccc3)c2)cn2nc(N)nc12 (single isomer, unassigned) [Example I-39]
24

====

# ASSAY TARGET: LZK (Homo sapiens, UniProt O43283)
# Construct: 10 nM LZK, catalytic domain, Carna Biosiences in assay buffer; purchased Carna Biosciences ('Carna Biosiences' [sic])
# Sequence (O43283 168-409 limits assumed): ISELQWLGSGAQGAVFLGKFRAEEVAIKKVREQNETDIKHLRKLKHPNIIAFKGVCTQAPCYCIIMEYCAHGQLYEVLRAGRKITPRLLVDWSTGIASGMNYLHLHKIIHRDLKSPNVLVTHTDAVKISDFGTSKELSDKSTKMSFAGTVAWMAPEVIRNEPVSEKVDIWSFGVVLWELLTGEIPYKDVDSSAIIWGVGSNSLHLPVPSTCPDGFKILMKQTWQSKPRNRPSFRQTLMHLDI
# ASSAY PROTOCOL: LZK biochemical assay (TR-FRET, MKK7 phosphorylation)
# CONDITION NOTES: LZK catalytic domain, MKK7 substrate, 15 μM ATP
Parameter pIC50: see the listing below.
Field pIC50 (float): negative decimal logarithm of the concentration in molar.

- MOLECULE: "CC[C@H](C)NC(=O)c1cc(-c2cnn(C(c3ccccc3)C3CC(F)(F)C3)c2)cn2nc(N)nc12 (mixture of isomers) [Example I-31]"
  ASSAY TARGET: "LZK (Homo sapiens, UniProt O43283)"
  METRIC: "pIC50"
  NUMBER: 6.82
- MOLECULE: "CC(C)C(c1ccc(F)cc1)n1cc(-c2cc(C(=O)N[C@@H](C)CO)c3nc(N)nn3c2)cn1 (single isomer, unassigned) [Example I-161]"
  ASSAY TARGET: "LZK (Homo sapiens, UniProt O43283)"
  METRIC: "pIC50"
  NUMBER: 6.27
- MOLECULE: "CCC(c1ccc(C(F)(F)F)nc1)n1cc(-c2cc(C(=O)N[C@@H](C)CO)c3nc(N)nn3c2)cn1 (single isomer, unassigned) [Example I-153]"
  ASSAY TARGET: "LZK (Homo sapiens, UniProt O43283)"
  METRIC: "pIC50"
  NUMBER: 7.54

Look up pIC50: CC[C@H](C)NC(=O)c1cc(-c2cnn(C3CCN(C(C)=O)CC3)c2)cn2nc(N)nc12 (single isomer, unassigned) [Example I-11]
7.85

Look up pIC50: CC[C@H](C)NC(=O)c1cc(-c2cnn(C(c3ccc(C(F)(F)F)nc3)C3CCOCC3)c2)cn2nc(N)nc12 (mixture of isomers) [Example I-76]
8.96

Look up pIC50: CC[C@H](C)NC(=O)c1cc(-c2cnn([C@H](c3ccc(C(F)(F)F)nc3)C(C)C)c2)cn2nc(N)nc12 (single isomer, unassigned) [Example I-75]
8.62

====

# ASSAY TARGET: DLK (Homo sapiens, UniProt Q12852)
# Construct: 10 nM DLK, catalytic domain, Carna Biosiences; purchased Carna Biosciences ('Carna Biosiences' [sic])
# ASSAY PROTOCOL: DLK biochemical assay (TR-FRET, MKK7 phosphorylation)
Parameter IC50: see the listing below.
Write the answer as a number in µM, unit excluded.

- MOLECULE: "CCC(c1ccc(C(F)(F)F)cc1)n1cc(-c2cc(-c3cnn(C)c3)c3nc(N)nn3c2)cn1 (single isomer, unassigned) [II-101]"
  METRIC: "IC50"
  UNITS OF MEASURE: "µM"
  NUMBER: 0.0068
- MOLECULE: "Nc1nc2cc(-c3cnn(C(c4ccc(C(F)(F)F)nc4)C4CCOCC4)c3)cc(-c3ccc(=O)n(C(F)F)c3)n2n1 (stereo not drawn) [II-182]"
  METRIC: "IC50"
  UNITS OF MEASURE: "µM"
  NUMBER: 0.004
- MOLECULE: "CCC(c1ccc(C(F)F)nc1)n1cc(-c2cc(-c3ccc(C(F)(F)F)nc3)n3nc(N)nc3c2)cn1 (single isomer, unassigned) [II-63]"
  METRIC: "IC50"
  UNITS OF MEASURE: "µM"
  NUMBER: 0.097
- MOLECULE: "CCC(c1ccc(C(F)(F)F)nc1)n1cc(-c2cc(-c3ccc(C4CC4)nc3)n3nc(N)nc3c2)cn1 (racemic) [II-55]"
  METRIC: "IC50"
  UNITS OF MEASURE: "µM"
  NUMBER: 0.021
- MOLECULE: "CCC(c1ccc(C(F)F)nc1)n1cc(-c2cc(-c3cnn(CC(F)(F)F)c3)c3nc(N)nn3c2)cn1 (single isomer, unassigned) [II-107]"
  METRIC: "IC50"
  UNITS OF MEASURE: "µM"
  NUMBER: 0.004

Look up IC50: Nc1nc2cc(-c3cnn(C(c4ccccc4)C4CCOCC4)c3)cc(-c3cnn(CC(F)(F)F)c3)n2n1 (single isomer, unassigned) [II-148]
0.022

====

# ASSAY TARGET: DLK (Homo sapiens, UniProt Q12852)
# Construct: 10 nM DLK, catalytic domain, Carna Biosiences; purchased Carna Biosciences ('Carna Biosiences' [sic])
# ASSAY PROTOCOL: DLK biochemical assay (TR-FRET, MKK7 phosphorylation)
# CONDITION NOTES: DLK catalytic domain, MKK7 substrate, 60 μM ATP
pIC50: −log10 of the molar value.
Label condition met for high-side pIC50 (at or above 8) and condition not met for low-side pIC50 (below it).

- COMPOUND: "CC[C@H](C)NC(=O)c1cc(-c2cnn(C(c3ccc(OCC(F)(F)F)nc3)C3CC3)c2)cc2nc(N)nn12 (single isomer, unassigned) [Example I-120]"
  ANSWER LABEL: "condition not met"

pIC50 >= 8 for CCC(c1ccc(OCC(F)(F)F)nc1)n1cc(-c2cc(C(=O)N[C@H]3CCOC3)n3nc(N)nc3c2)cn1 (single isomer, unassigned) [Example I-187] ?
condition met

pIC50 >= 8 for CCC(c1ccc(OCC(F)(F)F)nc1)n1cc(-c2cc(C(=O)N[C@@H](C)CC)n3nc(N)nc3c2)cn1 (single isomer, unassigned) [Example I-115] ?
condition met

pIC50 >= 8 for C[C@@H](CO)NC(=O)c1cc(-c2cnn([C@H](c3ccc(C(F)(F)F)nc3)C3CCOCC3)c2)cn2nc(N)nc12 (single isomer, unassigned) ?
condition met

pIC50 >= 8 for CC[C@H](C)NC(=O)c1cc(-c2cnn(C(c3ccc(C(F)F)nc3)C3CC3)c2)cc2nc(N)nn12 (single isomer, unassigned) [Example I-99] ?
condition not met

====

# ASSAY TARGET: DLK (Homo sapiens, UniProt Q12852)
# Construct: 10 nM DLK, catalytic domain, Carna Biosiences; purchased Carna Biosciences ('Carna Biosiences' [sic])
# Sequence (Q12852 125-366 limits assumed): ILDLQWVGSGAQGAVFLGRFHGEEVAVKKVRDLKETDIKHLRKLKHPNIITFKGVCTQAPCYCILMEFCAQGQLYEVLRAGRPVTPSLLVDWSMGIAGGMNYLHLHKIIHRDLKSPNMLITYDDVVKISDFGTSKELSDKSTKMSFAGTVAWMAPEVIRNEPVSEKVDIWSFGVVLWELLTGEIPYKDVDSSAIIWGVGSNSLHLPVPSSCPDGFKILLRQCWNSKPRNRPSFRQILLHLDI
# ASSAY PROTOCOL: DLK biochemical assay (TR-FRET, MKK7 phosphorylation)
# CONDITION NOTES: DLK catalytic domain, MKK7 substrate, 60 μM ATP
Parameter IC50: see the listing below.
Write the answer as a number in nM, unit excluded.

- COMPOUND: "CC(C)C(c1ccc(C(F)(F)F)nc1)n1cc(-c2cc(C(=O)N[C@H]3CCOC3)n3nc(N)nc3c2)cn1 (mixture of isomers) [Example I-180]"
  METRIC: "IC50"
  UNITS OF MEASURE: "nM"
  NUMBER: 1.6

Look up IC50: CCC(c1ccc(OCC(F)(F)F)nc1)n1cc(-c2cc(C(=O)N[C@@H](C)CC)n3nc(N)nc3c2)cn1 (mixture of isomers) [Example I-113]
5.4

Look up IC50: CC[C@H](C)NC(=O)c1cc(-c2cnn([C@@H](CC)c3ccc(C(F)(F)F)nc3)c2)cn2nc(N)nc12 (single isomer, unassigned)
1.4

Look up IC50: CC[C@H](C)NC(=O)c1cc(-c2cnn(C(c3c(F)cncc3F)C(C)C)c2)cc2nc(N)nn12 (single isomer, unassigned) [Example I-124]
60

Look up IC50: CCC(c1ccc(C(F)(F)F)nc1)n1cc(-c2cc(C(=O)N[C@@H](C)CC)n3nc(N)nc3c2)cn1 (mixture of isomers)
1.2

Look up IC50: CCC(c1ccc(OC(F)(F)F)nc1)n1cc(-c2cc(C(=O)N[C@@H](C)CO)c3nc(N)nn3c2)cn1 (mixture of isomers) [Example I-157]
5.7
